Origin of the recorded values: ChEMBL document CHEMBL5543109

Catalogue of compounds with associated MIC
Test system: Klebsiella pneumoniae
experiment: Antibacterial activity against Klebsiella pneumoniae ATCC 700603 incubated for 18 hrs by broth microdilution method
Type: functional

compound	display unit	MIC
NCCCC[C@@H](NC(=O)[C@H](N)Cc1c[nH]c2ccccc12)C(=O)N[C@H](Cc1c[nH]c2ccccc12)C(=O)N[C@H](CCCCN)C(=O)N[C@H](Cc1c[nH]c2ccccc12)C(=O)N1CCC[C@@H]1C(=O)NCC(=O)N[C@H](Cc1c[nH]c2ccccc12)C(=O)N[C@H](CCCCN)C(=O)N[C@H](Cc1c[nH]c2ccccc12)C(=O)N[C@H](CCCCN)C(=O)N[C@H](Cc1c[nH]c2ccccc12)C(N)=O	µM	8
NCCCC[C@@H](NC(=O)[C@H](N)Cc1c[nH]c2ccccc12)C(=O)N[C@H](Cc1c[nH]c2ccccc12)C(=O)N[C@H](CCCCN)C(=O)N[C@H](Cc1c[nH]c2ccccc12)C(=O)NCC(=O)NCC(=O)N[C@H](Cc1c[nH]c2ccccc12)C(=O)N[C@H](CCCCN)C(=O)N[C@H](Cc1c[nH]c2ccccc12)C(=O)N[C@H](CCCCN)C(=O)N[C@H](Cc1c[nH]c2ccccc12)C(N)=O	µM	8
NCCCC[C@@H](N)C(=O)N[C@H](Cc1c[nH]c2ccccc12)C(=O)N[C@H](CCCCN)C(=O)N[C@H](Cc1c[nH]c2ccccc12)C(=O)N[C@H](CCCCN)C(=O)N1CCC[C@@H]1C(=O)NCC(=O)N[C@H](CCCCN)C(=O)N[C@H](Cc1c[nH]c2ccccc12)C(=O)N[C@H](CCCCN)C(=O)N[C@H](Cc1c[nH]c2ccccc12)C(=O)N[C@H](CCCCN)C(N)=O	µM	16
CO[C@H]1/C=C/O[C@@]2(C)Oc3c(C)c(O)c4c(O)c(c(/C=N/N5CCN(C)CC5)c(O)c4c3C2=O)NC(=O)/C(C)=C\C=C\[C@H](C)[C@H](O)[C@@H](C)[C@@H](O)[C@@H](C)[C@H](OC(C)=O)[C@@H]1C [RIFAMPIN]	µM	64

====

Tested on: Pseudomonas aeruginosa
experiment: Antibacterial activity against Pseudomonas aeruginosa ATCC 27853 incubated for 18 hrs by broth microdilution method
Format: functional
// classify: if (MIC < 8 µM) Y else N

structure notation	label
NCCCC[C@@H](N)C(=O)N[C@H](Cc1c[nH]c2ccccc12)C(=O)N[C@H](CCCCN)C(=O)N[C@H](Cc1c[nH]c2ccccc12)C(=O)N[C@H](CCCCN)C(=O)N1CCC[C@@H]1C(=O)N1CCC[C@H]1C(=O)N[C@H](CCCCN)C(=O)N[C@H](Cc1c[nH]c2ccccc12)C(=O)N[C@H](CCCCN)C(=O)N[C@H](Cc1c[nH]c2ccccc12)C(=O)N[C@H](CCCCN)C(N)=O	Y
O=C(O)c1cn(C2CC2)c2cc(N3CCNCC3)c(F)cc2c1=O	Y
NCCCC[C@@H](N)C(=O)N[C@H](Cc1c[nH]c2ccccc12)C(=O)N[C@H](CCCCN)C(=O)N[C@H](Cc1c[nH]c2ccccc12)C(=O)N[C@H](CCCCN)C(=O)N1CCC[C@H]1C(=O)NCC(=O)N[C@H](CCCCN)C(=O)N[C@H](Cc1c[nH]c2ccccc12)C(=O)N[C@H](CCCCN)C(=O)N[C@H](Cc1c[nH]c2ccccc12)C(=O)N[C@H](CCCCN)C(N)=O	N
NC[C@H]1O[C@H](O[C@H]2[C@H](O)[C@@H](O[C@H]3O[C@H](CO)[C@@H](O)[C@H](N)[C@H]3O)[C@H](N)C[C@@H]2N)[C@H](O)[C@@H](O)[C@@H]1O	N
CO[C@H]1/C=C/O[C@@]2(C)Oc3c(C)c(O)c4c(O)c(c(/C=N/N5CCN(C)CC5)c(O)c4c3C2=O)NC(=O)/C(C)=C\C=C\[C@H](C)[C@H](O)[C@@H](C)[C@@H](O)[C@@H](C)[C@H](OC(C)=O)[C@@H]1C	N
NCCCC[C@@H](NC(=O)[C@H](N)Cc1c[nH]c2ccccc12)C(=O)N[C@H](Cc1c[nH]c2ccccc12)C(=O)N[C@H](CCCCN)C(=O)N[C@H](Cc1c[nH]c2ccccc12)C(=O)N[C@@H](CC(N)=O)C(=O)NCC(=O)N[C@H](Cc1c[nH]c2ccccc12)C(=O)N[C@H](CCCCN)C(=O)N[C@H](Cc1c[nH]c2ccccc12)C(=O)N[C@H](CCCCN)C(=O)N[C@H](Cc1c[nH]c2ccccc12)C(N)=O	Y
NCCCC[C@@H](NC(=O)[C@H](N)Cc1c[nH]c2ccccc12)C(=O)N[C@H](Cc1c[nH]c2ccccc12)C(=O)N[C@H](CCCCN)C(=O)N[C@H](Cc1c[nH]c2ccccc12)C(=O)NCC(=O)NCC(=O)N[C@H](Cc1c[nH]c2ccccc12)C(=O)N[C@H](CCCCN)C(=O)N[C@H](Cc1c[nH]c2ccccc12)C(=O)N[C@H](CCCCN)C(=O)N[C@H](Cc1c[nH]c2ccccc12)C(N)=O	Y
NCCCC[C@@H](N)C(=O)N[C@H](Cc1c[nH]c2ccccc12)C(=O)N[C@H](CCCCN)C(=O)N[C@H](Cc1c[nH]c2ccccc12)C(=O)N[C@H](CCCCN)C(=O)N[C@@H](CC(N)=O)C(=O)NCC(=O)N[C@H](CCCCN)C(=O)N[C@H](Cc1c[nH]c2ccccc12)C(=O)N[C@H](CCCCN)C(=O)N[C@H](Cc1c[nH]c2ccccc12)C(=O)N[C@H](CCCCN)C(N)=O	N
NCCCC[C@@H](NC(=O)[C@H](N)Cc1c[nH]c2ccccc12)C(=O)N[C@H](Cc1c[nH]c2ccccc12)C(=O)N[C@H](CCCCN)C(=O)N[C@H](Cc1c[nH]c2ccccc12)C(=O)N1CCC[C@@H]1C(=O)NCC(=O)N[C@H](Cc1c[nH]c2ccccc12)C(=O)N[C@H](CCCCN)C(=O)N[C@H](Cc1c[nH]c2ccccc12)C(=O)N[C@H](CCCCN)C(=O)N[C@H](Cc1c[nH]c2ccccc12)C(N)=O	Y
NCCCC[C@@H](N)C(=O)N[C@H](Cc1c[nH]c2ccccc12)C(=O)N[C@H](CCCCN)C(=O)N[C@H](Cc1c[nH]c2ccccc12)C(=O)N[C@H](CCCCN)C(=O)NCC(=O)NCC(=O)N[C@H](CCCCN)C(=O)N[C@H](Cc1c[nH]c2ccccc12)C(=O)N[C@H](CCCCN)C(=O)N[C@H](Cc1c[nH]c2ccccc12)C(=O)N[C@H](CCCCN)C(N)=O	N
